# Tested on: Sodium/Iodide Symporter (NIS), SLC5A5 (gene 6528)
# Run description: CPHEA_Stoker_NIS_Inhibition_RAIU: CPHEA's Radioactive Iodide Uptake (RAIU) Assay for Sodium/Iodide Symporter (NIS) Inhibition, Stoker and Laws Labs (AID 2283841)
Inconclusive results are not listed. Activity calls are given as the source filed them. The calls were made as follows: active = hit-call score of the fitted dose curve at least 0.9, where 1 is the maximum; inconclusive = response in the unintended direction; inactive = score below 0.9.
Result category, one only: active, inactive

Field: example entries. Status: answers known.
>  <Compound>
Cc1c(F)c(F)c(COC(=O)C2C(/C=C(\Cl)C(F)(F)F)C2(C)C)c(F)c1F (centres undefined)

>  <Class name>
inactive

$$$$
>  <Compound>
CON(C)C(=O)Nc1ccc(Cl)c(Cl)c1

>  <Class name>
inactive

$$$$
>  <Compound>
O=C(Nc1ccccc1)Nc1ccnc(Cl)c1

>  <Class name>
active

$$$$

Prompt: Identify the outcome logged in this assay for the compound shown: CCCCNC(=O)OCC#CI
Response: active

Prompt: Identify the outcome logged in this assay for the compound shown: CC1COC(Cn2cncn2)(c2ccc(Oc3ccc(Cl)cc3)cc2Cl)O1 (centres undefined)
Response: active

Prompt: Identify the outcome logged in this assay for the compound shown: OC(c1ccc(Cl)cc1)(c1cncnc1)c1ccccc1Cl (centres undefined)
Response: inactive

Prompt: Identify the outcome logged in this assay for the compound shown: Fc1ccc(Oc2ccnc3cc(Cl)cc(Cl)c23)cc1
Response: active

Prompt: Identify the outcome logged in this assay for the compound shown: CCCC1COC(Cn2cncn2)(c2ccc(Cl)cc2Cl)O1 (centres undefined)
Response: inactive

Prompt: Identify the outcome logged in this assay for the compound shown: CN(C)C(=S)SSC(=S)N(C)C
Response: inactive

Prompt: Identify the outcome logged in this assay for the compound shown: Oc1ccccc1-c1ccccc1
Response: inactive

Prompt: Identify the outcome logged in this assay for the compound shown: Cc1ccc(-c2c(Cl)nc(C#N)n2S(=O)(=O)N(C)C)cc1
Response: inactive

Prompt: Identify the outcome logged in this assay for the compound shown: C#CCOS(=O)OC1CCCCC1Oc1ccc(C(C)(C)C)cc1 (centres undefined)
Response: inactive

Prompt: Identify the outcome logged in this assay for the compound shown: CCOc1cc(Oc2ccc(C(F)(F)F)cc2Cl)ccc1[N+](=O)[O-]
Response: active

Prompt: Identify the outcome logged in this assay for the compound shown: COC(=O)N(OC)c1ccccc1COc1ccn(-c2ccc(Cl)cc2)n1
Response: inactive

Prompt: Identify the outcome logged in this assay for the compound shown: CCCCOC(=O)c1ccccc1C(=O)OCCCC
Response: inactive

Prompt: Identify the outcome logged in this assay for the compound shown: CC(C)(C)c1ccc(CSc2cnn(C(C)(C)C)c(=O)c2Cl)cc1
Response: inactive

Prompt: Identify the outcome logged in this assay for the compound shown: N#Cc1nn(-c2c(Cl)cc(C(F)(F)F)cc2Cl)c(N)c1S(=O)C(F)(F)F (centres undefined)
Response: active

Prompt: Identify the outcome logged in this assay for the compound shown: CCCN(CCC)c1c([N+](=O)[O-])cc(S(N)(=O)=O)cc1[N+](=O)[O-]
Response: inactive

Prompt: Identify the outcome logged in this assay for the compound shown: COC(=O)C(C)Oc1ccc(Oc2ccc(Cl)cc2Cl)cc1 (centres undefined)
Response: inactive

Prompt: Identify the outcome logged in this assay for the compound shown: CCOC(=O)CC(SP(=S)(OC)OC)C(=O)OCC (centres undefined)
Response: inactive

----------
# Run description: CEETOX_H295R_OHPREG: CeeTox H295R High-throughput Steroidogenesis Assay for OH-Pregnenolone (OHPREG) (AID 2283434)
# Applied conditions: actives raise or lower the signal
Calls of active or inactive are those of the source. How the source made its calls: active means hit-call score of the fitted dose curve at least 0.9, where 1 is the maximum; inactive means score below 0.9.
Result category, one only: t (active), f (inactive)

Field: example entries. Status: answers known.
>  <Compound>
CC1=C(C(=O)Nc2ccccc2)SCCO1

>  <Class name>
f

$$$$
>  <Compound>
CON(C)C(=O)Nc1ccc(Cl)c(Cl)c1

>  <Class name>
f

$$$$
>  <Compound>
CCCCNC(=O)n1c(NC(=O)OC)nc2ccccc21

>  <Class name>
f

$$$$
>  <Compound>
N#CC(CCc1ccc(Cl)cc1)(Cn1cncn1)c1ccccc1 (stereo not drawn)

>  <Class name>
f

$$$$
>  <Compound>
CNC(=S)S

>  <Class name>
f

$$$$

Prompt: Identify the outcome logged in this assay for the compound shown: CCON=C(CC)C1=C(O)CC(c2c(C)cc(C)cc2C)CC1=O (stereo not drawn)
Response: f

Prompt: Identify the outcome logged in this assay for the compound shown: Cc1c(F)c(F)c(COC(=O)C2C(/C=C(\Cl)C(F)(F)F)C2(C)C)c(F)c1F (stereo not drawn)
Response: f

Prompt: Identify the outcome logged in this assay for the compound shown: CCNc1nc(Cl)nc(NCC)n1
Response: f

Prompt: Identify the outcome logged in this assay for the compound shown: C=CC1(C)OC(=O)N(c2cc(Cl)cc(Cl)c2)C1=O (stereo not drawn)
Response: f

Prompt: Identify the outcome logged in this assay for the compound shown: CCNc1nc(Cl)nc(NC(C)C)n1
Response: f

Prompt: Identify the outcome logged in this assay for the compound shown: COc1nc(NC(C)C)nc(NC(C)C)n1
Response: f

Prompt: Identify the outcome logged in this assay for the compound shown: CC(C)Oc1cc(-n2nc(C(C)(C)C)oc2=O)c(Cl)cc1Cl
Response: t

Prompt: Identify the outcome logged in this assay for the compound shown: CCOC(=O)C(Cl)Cc1cc(-n2nc(C)n(C(F)F)c2=O)c(F)cc1Cl (stereo not drawn)
Response: f

FYI, the data here is from PubChem BioAssay (EPA / NIEHS).
